System tested: GABA A receptor alpha-2/beta-2/gamma-2 (Homo sapiens, UniProt P18507+P47869+P47870)
Sequence (P47870 whole entry): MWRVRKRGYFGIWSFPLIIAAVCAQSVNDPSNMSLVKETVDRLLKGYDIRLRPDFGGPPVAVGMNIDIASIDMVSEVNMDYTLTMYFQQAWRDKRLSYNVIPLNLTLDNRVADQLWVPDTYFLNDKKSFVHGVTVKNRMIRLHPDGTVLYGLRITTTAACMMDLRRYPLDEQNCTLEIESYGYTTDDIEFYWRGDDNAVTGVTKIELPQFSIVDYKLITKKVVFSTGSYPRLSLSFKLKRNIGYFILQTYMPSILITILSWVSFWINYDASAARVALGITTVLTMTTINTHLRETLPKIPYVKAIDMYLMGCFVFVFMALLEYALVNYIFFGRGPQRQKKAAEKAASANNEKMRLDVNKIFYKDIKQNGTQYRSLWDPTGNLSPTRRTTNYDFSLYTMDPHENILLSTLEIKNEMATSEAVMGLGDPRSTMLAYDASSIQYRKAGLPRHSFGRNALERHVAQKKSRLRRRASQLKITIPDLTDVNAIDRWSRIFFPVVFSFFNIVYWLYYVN
Sequence (P18507 whole entry): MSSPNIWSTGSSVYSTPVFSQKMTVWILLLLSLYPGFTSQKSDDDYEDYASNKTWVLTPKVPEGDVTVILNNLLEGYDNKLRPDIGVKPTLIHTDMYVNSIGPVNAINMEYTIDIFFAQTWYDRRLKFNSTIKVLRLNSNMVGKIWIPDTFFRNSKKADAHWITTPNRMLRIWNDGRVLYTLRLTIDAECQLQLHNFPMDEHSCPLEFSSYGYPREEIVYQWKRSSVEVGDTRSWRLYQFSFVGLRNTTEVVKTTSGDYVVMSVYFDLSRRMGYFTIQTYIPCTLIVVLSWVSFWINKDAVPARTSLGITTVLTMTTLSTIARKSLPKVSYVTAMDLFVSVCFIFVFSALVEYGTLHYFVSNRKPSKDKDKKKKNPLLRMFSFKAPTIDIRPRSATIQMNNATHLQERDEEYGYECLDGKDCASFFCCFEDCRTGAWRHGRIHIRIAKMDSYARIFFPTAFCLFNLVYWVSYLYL
Sequence (P47869 whole entry): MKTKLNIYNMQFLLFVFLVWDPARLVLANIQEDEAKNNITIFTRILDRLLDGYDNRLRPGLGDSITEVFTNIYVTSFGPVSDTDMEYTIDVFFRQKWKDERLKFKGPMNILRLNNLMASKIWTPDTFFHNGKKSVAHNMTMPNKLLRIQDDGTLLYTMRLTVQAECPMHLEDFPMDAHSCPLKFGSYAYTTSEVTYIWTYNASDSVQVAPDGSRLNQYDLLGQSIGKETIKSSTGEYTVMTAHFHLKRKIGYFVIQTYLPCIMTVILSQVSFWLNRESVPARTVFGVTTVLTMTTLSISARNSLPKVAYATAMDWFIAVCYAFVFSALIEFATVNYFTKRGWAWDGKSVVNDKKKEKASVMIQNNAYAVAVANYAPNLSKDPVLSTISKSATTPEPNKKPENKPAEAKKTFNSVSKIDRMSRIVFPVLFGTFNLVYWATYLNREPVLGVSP
Assay info: Effective concentration against GABA-evoked chloride currents mediated by human Gamma-aminobutyric acid GABA-A receptor alpha2-beta2-gamma2L expressed in Xenopus oocytes
Measurement name: pEC50
In simple prose, pEC50 is minus the logarithm base ten of a concentration in moles per litre.

Some entries whose results are on file:
# Compound, pEC50
data = [
    ("CN1CCN(C(=O)c2cn(-c3ccc(Cl)cc3Cl)c(-c3ccc(Cl)cc3)n2)CC1", 5.89),
    ("CCOC(=O)c1cn(-c2ccc(Cl)c(Cl)c2)c(-c2ccc(Cl)cc2)n1", 5.64),
    ("CCOC(=O)c1cn(-c2ccc(Cl)cc2Cl)c(-c2ccc([N+](=O)[O-])cc2)n1", 5.62),
    ("CC(C)c1cccc(C(C)C)c1O [PROPOFOL]", 4.95),
    ("CCCC(C)C1(CC)C(=O)NC(=O)NC1=O (stereo unspecified) [PENTOBARBITAL]", 4.30),
    ("COC(=O)c1cn(-c2ccc(Cl)cc2Cl)c(-c2ccc(Br)cc2)n1", 5.47),
    ("CCOC(=O)c1cn(-c2ccc(Cl)cc2Cl)c(-c2ccccc2)n1", 5.74),
    ("CCOC(=O)c1cn(-c2ccccc2)c(-c2ccc(OC)cc2)n1", 5.04),
    ("O=C(O)c1cn(-c2ccc(Cl)cc2Cl)c(-c2ccc(Cl)cc2)n1", 5.06),
    ("CCCOC(=O)c1cn(-c2ccc(Cl)cc2Cl)c(-c2ccc(Br)cc2)n1", 5.77),
]

# next compound below
Input: Fill in the blank: the reported pEC50 of "CCOC(=O)c1cn(-c2ccc(Cl)cc2Cl)c(-c2ccc(Cl)cc2)n1" is ____.
Output: 6.22
